Origin of the recorded values: patent US20160333419A1

- Test system: A172
- experimental.details: OncoPanel cytotoxicity assay
- Assay type: cell-based
- details: Homo sapiens, A 172, 72 hour incubation
pIC50: −log10 of the molar value.
experimental.readout: pIC50

{"molecule": "CC[C@@H]1CNC2(CC2)CN1C(=O)[C@@H]1C[C@@H](F)CN1C(=O)C1=C(C(C)C)N2C(=N[C@@](C)(c3ccc(Cl)nc3)[C@H]2c2ccc(Cl)c(F)c2)S1", "experimental.readout": "pIC50", "measured.value": 6.10}
{"molecule": "CC1(C)CCC2(CC1)N[C@@H](C(=O)N[C@@H]1CC[C@@H](C(N)=O)OC1)[C@H](c1ccnc(Cl)c1F)[C@]21C(=O)Nc2cc(Cl)ccc21", "experimental.readout": "pIC50", "measured.value": 7.16}

====

- System: SU.86.86
- experimental.details: OncoPanel cytotoxicity assay
- Type: cell-based
- details: Homo sapiens, 72 hour incubation
- Description: Cells were grown in RPMI 1640, 10% FBS, 2 mM L-alanyl-L-Glutamine, 1 mM Na Pyruvate, or a special medium in a humidified atmosphere of 5% CO2 at 37° C. Cells were seeded into 384-well plates and incubated in a humidified atmosphere of 5% CO2 at 37° C. Test compounds were added 24 hours post cell seeding. At the same time, a time zero, untreated cell plate was generated as a control. […] Cell proliferation was measured by the signal intensity of the incorporated nuclear dye. […]
Each item that follows carries a reported IC50.

{"molecule": "CC[C@@H]1CNC2(CC2)CN1C(=O)[C@@H]1C[C@@H](F)CN1C(=O)C1=C(C(C)C)N2C(=N[C@@](C)(c3ccc(Cl)nc3)[C@H]2c2ccc(Cl)c(F)c2)S1", "measurement.units": "µM", "inequality.symbol": ">", "IC50": 40}
{"molecule": "CC1(C)CCC2(CC1)N[C@@H](C(=O)N[C@@H]1CC[C@@H](C(N)=O)OC1)[C@H](c1ccnc(Cl)c1F)[C@]21C(=O)Nc2cc(Cl)ccc21", "measurement.units": "µM", "inequality.symbol": "=", "IC50": 8.86}

====

- Test system: BxPC-3
- experimental.details: OncoPanel cytotoxicity assay
- Format: cell-based
- details: Homo sapiens, 72 hour incubation

{"molecule": "CC[C@@H]1CNC2(CC2)CN1C(=O)[C@@H]1C[C@@H](F)CN1C(=O)C1=C(C(C)C)N2C(=N[C@@](C)(c3ccc(Cl)nc3)[C@H]2c2ccc(Cl)c(F)c2)S1", "IC50": "> 40 µM"}
{"molecule": "CC1(C)CCC2(CC1)N[C@@H](C(=O)N[C@@H]1CC[C@@H](C(N)=O)OC1)[C@H](c1ccnc(Cl)c1F)[C@]21C(=O)Nc2cc(Cl)ccc21", "IC50": "> 10 µM"}

====

- System: NCI-H292
- experimental.details: OncoPanel cytotoxicity assay
- Type: cell-based
- details: Homo sapiens, 72 hour incubation
pIC50: −log10 of the molar value.

{"molecule": "CC[C@@H]1CNC2(CC2)CN1C(=O)[C@@H]1C[C@@H](F)CN1C(=O)C1=C(C(C)C)N2C(=N[C@@](C)(c3ccc(Cl)nc3)[C@H]2c2ccc(Cl)c(F)c2)S1 [Compound A]", "pIC50": 6.32}
{"molecule": "CC1(C)CCC2(CC1)N[C@@H](C(=O)N[C@@H]1CC[C@@H](C(N)=O)OC1)[C@H](c1ccnc(Cl)c1F)[C@]21C(=O)Nc2cc(Cl)ccc21 [Compound B]", "pIC50": 7.46}

====

Each item that follows carries a reported IC50.
- Tested on: MOLT-16
- experimental.details: OncoPanel cytotoxicity assay
- Type: cell-based
- details: Homo sapiens, 72 hour incubation

{"molecule": "CC[C@@H]1CNC2(CC2)CN1C(=O)[C@@H]1C[C@@H](F)CN1C(=O)C1=C(C(C)C)N2C(=N[C@@](C)(c3ccc(Cl)nc3)[C@H]2c2ccc(Cl)c(F)c2)S1", "IC50 [nM]": 236}
{"molecule": "CC1(C)CCC2(CC1)N[C@@H](C(=O)N[C@@H]1CC[C@@H](C(N)=O)OC1)[C@H](c1ccnc(Cl)c1F)[C@]21C(=O)Nc2cc(Cl)ccc21", "IC50 [nM]": 59.8}

====

Each item that follows carries a reported IC50.
- System: C-33A
- experimental.details: OncoPanel cytotoxicity assay
- Assay type: cell-based
- details: Homo sapiens, 72 hour incubation
experimental.readout: IC50 (µM)

{"molecule": "CC1(C)CCC2(CC1)N[C@@H](C(=O)N[C@@H]1CC[C@@H](C(N)=O)OC1)[C@H](c1ccnc(Cl)c1F)[C@]21C(=O)Nc2cc(Cl)ccc21", "measurement.units": "µM", "inequality.symbol": "=", "measured.value": 5.49}
{"molecule": "CC[C@@H]1CNC2(CC2)CN1C(=O)[C@@H]1C[C@@H](F)CN1C(=O)C1=C(C(C)C)N2C(=N[C@@](C)(c3ccc(Cl)nc3)[C@H]2c2ccc(Cl)c(F)c2)S1", "measurement.units": "µM", "inequality.symbol": ">", "measured.value": 40}

====

- Test system: NCI-H596
- experimental.details: OncoPanel cytotoxicity assay
- Format: cell-based
- details: Homo sapiens, 72 hour incubation
pIC50: −log10 of the molar value.
Each item that follows carries a reported pIC50.

{"molecule": "CC[C@@H]1CNC2(CC2)CN1C(=O)[C@@H]1C[C@@H](F)CN1C(=O)C1=C(C(C)C)N2C(=N[C@@](C)(c3ccc(Cl)nc3)[C@H]2c2ccc(Cl)c(F)c2)S1", "pIC50": "< 4.40"}
{"molecule": "CC1(C)CCC2(CC1)N[C@@H](C(=O)N[C@@H]1CC[C@@H](C(N)=O)OC1)[C@H](c1ccnc(Cl)c1F)[C@]21C(=O)Nc2cc(Cl)ccc21", "pIC50": "< 5.00"}

====

- System: AsPC-1
- experimental.details: OncoPanel cytotoxicity assay
- Assay type: cell-based
- details: Homo sapiens, ASPC1, 72 hour incubation
- Procedure: Cells were grown in RPMI 1640, 10% FBS, 2 mM L-alanyl-L-Glutamine, 1 mM Na Pyruvate, or a special medium in a humidified atmosphere of 5% CO2 at 37° C. Cells were seeded into 384-well plates and incubated in a humidified atmosphere of 5% CO2 at 37° C. Test compounds were added 24 hours post cell seeding. At the same time, a time zero, untreated cell plate was generated as a control. […] Cell proliferation was measured by the signal intensity of the incorporated nuclear dye. […]
pIC50: −log10 of the molar value.

{"molecule": "CC[C@@H]1CNC2(CC2)CN1C(=O)[C@@H]1C[C@@H](F)CN1C(=O)C1=C(C(C)C)N2C(=N[C@@](C)(c3ccc(Cl)nc3)[C@H]2c2ccc(Cl)c(F)c2)S1", "pIC50": "< 4.40"}
{"molecule": "CC1(C)CCC2(CC1)N[C@@H](C(=O)N[C@@H]1CC[C@@H](C(N)=O)OC1)[C@H](c1ccnc(Cl)c1F)[C@]21C(=O)Nc2cc(Cl)ccc21", "pIC50": "< 5.00"}

====

- System: SW1463
- experimental.details: OncoPanel cytotoxicity assay
- Type: cell-based
- details: Homo sapiens, 72 hour incubation
pIC50: −log10 of the molar value.
experimental.readout: pIC50

{"molecule": "CC1(C)CCC2(CC1)N[C@@H](C(=O)N[C@@H]1CC[C@@H](C(N)=O)OC1)[C@H](c1ccnc(Cl)c1F)[C@]21C(=O)Nc2cc(Cl)ccc21 [Compound B]", "measured.value": "< 5.00"}
{"molecule": "CC[C@@H]1CNC2(CC2)CN1C(=O)[C@@H]1C[C@@H](F)CN1C(=O)C1=C(C(C)C)N2C(=N[C@@](C)(c3ccc(Cl)nc3)[C@H]2c2ccc(Cl)c(F)c2)S1 [Compound A]", "measured.value": "< 4.40"}

====

- Test system: 647-V
- experimental.details: OncoPanel cytotoxicity assay
- Type: cell-based
- details: Homo sapiens, 72 hour incubation
pIC50: −log10 of the molar value.
Each item that follows carries a reported pIC50.
experimental.readout: pIC50

{"molecule": "CC1(C)CCC2(CC1)N[C@@H](C(=O)N[C@@H]1CC[C@@H](C(N)=O)OC1)[C@H](c1ccnc(Cl)c1F)[C@]21C(=O)Nc2cc(Cl)ccc21", "measured.value": "< 5.00"}
{"molecule": "CC[C@@H]1CNC2(CC2)CN1C(=O)[C@@H]1C[C@@H](F)CN1C(=O)C1=C(C(C)C)N2C(=N[C@@](C)(c3ccc(Cl)nc3)[C@H]2c2ccc(Cl)c(F)c2)S1", "measured.value": "< 4.40"}

====

Each item that follows carries a reported pIC50.
- System: MCF7
- experimental.details: OncoPanel cytotoxicity assay
- Type: cell-based
- details: Homo sapiens, 72 hour incubation
- Experimental: Cells were grown in RPMI 1640, 10% FBS, 2 mM L-alanyl-L-Glutamine, 1 mM Na Pyruvate, or a special medium in a humidified atmosphere of 5% CO2 at 37° C. Cells were seeded into 384-well plates and incubated in a humidified atmosphere of 5% CO2 at 37° C. Test compounds were added 24 hours post cell seeding. At the same time, a time zero, untreated cell plate was generated as a control. […] Cell proliferation was measured by the signal intensity of the incorporated nuclear dye. […]
pIC50: −log10 of the molar value.

{"molecule": "CC1(C)CCC2(CC1)N[C@@H](C(=O)N[C@@H]1CC[C@@H](C(N)=O)OC1)[C@H](c1ccnc(Cl)c1F)[C@]21C(=O)Nc2cc(Cl)ccc21 [Compound B]", "pIC50": 7.08}
{"molecule": "CC[C@@H]1CNC2(CC2)CN1C(=O)[C@@H]1C[C@@H](F)CN1C(=O)C1=C(C(C)C)N2C(=N[C@@](C)(c3ccc(Cl)nc3)[C@H]2c2ccc(Cl)c(F)c2)S1 [Compound A]", "pIC50": 6.18}
